Tested on: EJ
Assay: Induction of apoptosis in human EJ cells assessed as early apoptotic cells at 5 uM after 24 hrs by annexin V-FITC/propidium iodide staining-based flow cytometric analysis (reference value: 0.01 to 0.04%)
Type: functional
Lab note: anything with Activity at or over 90% counts as 1.0; the rest go in 0.0.

Item smiles: CC(C)c1ccc2c(c1)CC[C@H]1[C@](C)(CNC(=S)N[C@@H]3CCCC[C@H]3N3CCCC3)CCC[C@]21C
Category label: 1.0

Item smiles: CC(C)c1ccc2c(c1)CC[C@H]1[C@](C)(CNC(=S)N[C@H]3CCCC[C@@H]3N)CCC[C@]21C
Category label: 0.0

Item smiles: CC(C)c1ccc2c(c1)CC[C@H]1[C@](C)(CNC(=S)N[C@H]3CCCC[C@@H]3N3CCCC3)CCC[C@]21C
Category label: 1.0
